# pIC50 per entry
biological target: mTORC1 (mTOR/GbL/Raptor) (Homo sapiens, UniProt P42345); test: mTOR/GbL/Raptor (mTORC1) ELISA Assay; format: biochemical; conditions: 0.2 nM mTORC1, 10 μM ATP, 50 nM NHis-tagged 4E-BP1; phosphorylation of 4E-BP1; read-out: IC50
pIC50: −log10 of the molar value.
EXPERIMENTAL READOUT: pIC50

>>> df
                                    compound  readout_value
 0  Cc1nc2ccc(-c3ccc4c(c3)CN(C(=O)N3CC[C@@H]5CCCC[C@H]5C3)CCO4)cc2[nH]1 (racemic)   6.15 to 6.60
 1  Cc1nc2ccc(-c3ccc4c(c3)CN(C(=O)N3CCN(c5ccccc5)CC3)CCO4)cc2[nH]1   6.15 to 6.60
 2  Cc1nc2ccc(-c3ccc4c(c3)CN(C(=O)N3CCC(F)(F)CC3c3ccccc3)CCO4)cc2[nH]1 (centres unmarked)   6.60 to 7.30
 3  COC(=O)Nc1nc2ccc(-c3ccc4c(c3)CN(C(=O)N3CCC(C#N)CC3)CCO4)cc2[nH]1   6.60 to 7.30
 4  N#CC1CCN(C(=O)N2CCOc3ccc(-c4ccc(-c5ncc[nH]5)nc4)cc3C2)CC1   6.60 to 7.30
 5  O=C(N1CCOc2ccc(-c3cnc4nc[nH]c4c3)cc2C1)N1[C@@H]2CC[C@H]1C[C@](O)(C(F)(F)F)C2   6.60 to 7.30
 6  Cc1nc2ccc(-c3ccc4c(c3)CN(C(=O)N3CCN(c5ccccn5)CC3)CCO4)cc2[nH]1   5.59 to 6.15
 7  Cc1nc2ccc(-c3ccc4c(c3)CN(C(=O)N3CCCCCC3c3ccccc3)CCO4)cc2[nH]1 (centres unmarked)   6.15 to 6.60
 8  COC1CCN(C(=O)N2CCOc3ccc(-c4ccc5nc(C)[nH]c5c4)cc3C2)CC1   6.60 to 7.30
 9  COC(=O)Nc1nc2ncc(-c3ccc4c(c3)CN(C(=O)N3CCC(O)(CF)CC3)CCO4)cc2[nH]1   6.60 to 7.30
10  Cc1nc2ccc(-c3ccc4c(c3)CN(C(=O)N3CCN(c5ncccn5)CC3)CCO4)cc2[nH]1   5.59 to 6.15
11  Cc1nc2ccc(-c3ccc4c(c3)CN(C(=O)N3CCC(C)(O)CC3)CCO4)cc2[nH]1   6.60 to 7.30
12  COC(=O)Nc1nc2ccc(-c3ccc4c(c3)CN(C(=O)N3CCC(C(F)F)CC3)CCO4)cc2[nH]1   6.60 to 7.30
13  Cc1nc2ccc(-c3ccc4c(c3)CN(C(=O)N3CCC(Cc5ccccc5)CC3)CCO4)cc2[nH]1   6.15 to 6.60
14  Cc1nc2ccc(-c3ccc4c(c3)CN(C(=O)N3CCCCC3c3cccc(F)c3)CCO4)cc2[nH]1 (centres unmarked)         ≥ 7.30
15  Nc1nc2ncc(-c3ccc4c(c3)CN(C(=O)N3CCC(C(F)F)CC3)CCO4)cc2[nH]1         ≥ 7.30
16  Cc1nc2ccc(-c3ccc4c(c3)CN(C(=O)N3CCCC3c3ccccc3)CCO4)cc2[nH]1 (centres unmarked)   6.60 to 7.30
17  Nc1nc2ncc(-c3ccc4c(c3)CN(C(=O)N3[C@@H]5CC[C@H]3C[C@](O)(C(F)(F)F)C5)CCO4)cc2[nH]1         ≥ 7.30
18  Cc1nc2ccc(-c3ccc4c(c3)CN(C(=O)N3CCC(c5ccccc5)C3)CCO4)cc2[nH]1 (centres unmarked)   6.60 to 7.30
19  Cc1nc2ccc(-c3ccc4c(c3)CN(C(=O)N3CCC(=C(F)F)CC3)CCO4)cc2[nH]1   6.15 to 6.60
20  Cc1nc2ccc(-c3ccc4c(c3)CN(C(=O)N3CCC(c5noc(C6CC6)n5)CC3)CCO4)cc2[nH]1   6.15 to 6.60
21  CC1CCN(C(=O)N2CCOc3ccc(-c4cncs4)cc3C2)CC1   6.15 to 6.60
22  O=C(N1CCC(C(F)F)CC1)N1CCOc2ccc(-c3ccc(-c4ncc[nH]4)cc3)cc2C1         ≥ 7.30
